target: FimH (Escherichia coli, UniProt Q1R2J4); settings: Table 22; ZFH/JWJ codes
Entries annotated with measured HAI Titer EC>90
Write the figure, then the unit, nothing else.

[
  {
    "compound": "OC[C@@H]1OC(Oc2ccc(-c3ccc4ccncc4c3)cc2)[C@H](O)[C@@H](O)[C@@H]1O (stereo partly shown)",
    "HAI Titer EC>90": "0.750 µM"
  },
  {
    "compound": "OC[C@@H]1OC(Oc2ccc(-c3ccc4ncncc4c3)cc2)[C@H](O)[C@@H](O)[C@@H]1O (stereo partly shown)",
    "HAI Titer EC>90": "0.375 µM"
  },
  {
    "compound": "COC(=O)c1cccc(-c2ccc(OC3O[C@@H](CO)[C@@H](O)[C@H](O)[C@H]3O)c(C(F)(F)F)c2)c1 (stereo partly shown)",
    "HAI Titer EC>90": "0.032 µM"
  }
]

Shift focus to the following entry.
For the compound shown here, COC(=O)c1cccc(-c2ccc(OC3O[C@@H](CO)[C@@H](O)[C@H](O)[C@H]3O)c(C)c2)c1 (stereo partly shown) , give the reported HAI Titer EC>90.
0.125 µM

----------
molecular target: FimH (Escherichia coli, UniProt P08191); experiment: biochemical; type: binding, E. coli; conditions: FP Binding EC50, Table 13; competition with FAM mannoside 20
Sequence (P08191 22-300): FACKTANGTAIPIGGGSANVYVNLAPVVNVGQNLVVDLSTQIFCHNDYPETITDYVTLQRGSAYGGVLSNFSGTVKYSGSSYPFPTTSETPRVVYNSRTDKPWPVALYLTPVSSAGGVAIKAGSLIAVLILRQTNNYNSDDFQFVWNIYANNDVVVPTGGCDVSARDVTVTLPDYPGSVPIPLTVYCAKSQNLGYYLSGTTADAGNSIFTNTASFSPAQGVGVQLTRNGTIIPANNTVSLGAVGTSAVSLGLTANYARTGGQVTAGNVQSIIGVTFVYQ
Entries annotated with measured EC50
Expressed in nM, but write only the number.

Some solved entries appear below for comparison.
[
  {
    "compound": "O=C(O)c1cccc(-c2ccc(OC3OC(CO)C(O)C(O)C3O)cc2)c1 (centres unmarked) [Compound 14c]",
    "system": "FimH (Escherichia coli, UniProt P08191)",
    "EC50 [nM]": 99
  },
  {
    "compound": "NC(=O)c1cccc(-c2ccc(OC3OC(CO)C(O)C(O)C3O)cc2)c1 (centres unmarked) [Compound 2ZFH32]",
    "system": "FimH (Escherichia coli, UniProt P08191)",
    "EC50 [nM]": 78
  },
  {
    "compound": "CS(=O)(=O)Nc1cccc(-c2ccc(OC3OC(CO)C(O)C(O)C3O)cc2)c1 (centres unmarked) [Compound 3ZFH166]",
    "system": "FimH (Escherichia coli, UniProt P08191)",
    "EC50 [nM]": 97
  },
  {
    "compound": "COC(=O)c1ccc(OC2OC(CO)C(O)C(O)C2O)cc1 (centres unmarked) [Compound 1ZFH53]",
    "system": "FimH (Escherichia coli, UniProt P08191)",
    "EC50 [nM]": 64
  }
]

For the compound shown here, COC(=O)c1cccc(-c2ccc(OC3OC(CO)C(O)C(O)C3O)cc2)c1 (centres unmarked) [Compound 8e] , give the reported EC50.
52

----------
biological target: FimH (Escherichia coli); details: Table 22; ZFH/JWJ codes
Label Condition not met if HAI Titer EC>90 falls below 0.8 µM; label Condition met in every other case.

[
  {
    "molecule": "COC(=O)c1cccc(-c2ccc(OC3O[C@@H](CO)[C@@H](O)[C@H](O)[C@H]3O)c(F)c2)c1 (stereo partly drawn) [Compound 4ZFH220]",
    "category label": "Condition not met"
  },
  {
    "molecule": "CNC(=O)c1cc(C(=O)NC)cc(-c2ccc(OC3O[C@@H](CO)[C@@H](O)[C@H](O)[C@H]3O)c(C)c2)c1 (stereo partly drawn) [Compound 4ZFH284]",
    "category label": "Condition not met"
  },
  {
    "molecule": "CNC(=O)c1cccc(-c2ccc(OC3O[C@@H](CO)[C@@H](O)[C@H](O)[C@H]3O)c(C)c2)c1 (stereo partly drawn) [Compound 4ZFH269]",
    "category label": "Condition not met"
  },
  {
    "molecule": "NC(=O)Nc1ccc(-c2ccc(OC3O[C@@H](CO)[C@@H](O)[C@H](O)[C@H]3O)cc2)cc1 (stereo partly drawn) [Compound 4ZFH218]",
    "category label": "Condition met"
  }
]

Quick check: does COC(=O)c1cccc(-c2ccc(C(=O)NCC3O[C@@H](CO)[C@@H](O)[C@H](O)[C@H]3O)cc2)c1 (stereo partly drawn) [Compound 4ZFH131] have HAI Titer EC>90 greater than or equal to 0.8 µM?
Condition met

Quick check: does CNC(=O)c1cc(C(=O)NC)cc(-c2ccc(OC3O[C@@H](CO)[C@@H](O)[C@H](O)[C@H]3O)c(C(F)(F)F)c2)c1 (stereo partly drawn) [Compound 1JWJ149] have HAI Titer EC>90 greater than or equal to 0.8 µM?
Condition not met

----------
biological target: FimH (Escherichia coli); settings: Table 18; Examples 30-36 numbering
Label FALSE if HAI Titer EC>90 falls below 3 µM; label TRUE in every other case.

# example entries with known answers
[
  {
    "compound": "O=C(NCCO)c1cccc(-c2ccc(O[C@H]3O[C@H](CO)[C@@H](O)[C@H](O)[C@@H]3O)cc2)c1 [Compound 10a]",
    "system": "FimH (Escherichia coli)",
    "category label": "FALSE"
  },
  {
    "compound": "O=C(Nc1cccnc1)c1cccc(-c2ccc(O[C@H]3O[C@H](CO)[C@@H](O)[C@H](O)[C@@H]3O)cc2)c1 [Compound 10f]",
    "system": "FimH (Escherichia coli)",
    "category label": "FALSE"
  },
  {
    "compound": "O=C(c1cccc(-c2ccc(O[C@H]3O[C@H](CO)[C@@H](O)[C@H](O)[C@@H]3O)cc2)c1)N1CCNCC1 [Compound 10c]",
    "system": "FimH (Escherichia coli)",
    "category label": "TRUE"
  },
  {
    "compound": "O=C(Nc1ccncc1)c1cccc(-c2ccc(O[C@H]3O[C@H](CO)[C@@H](O)[C@H](O)[C@@H]3O)cc2)c1 [Compound 10e]",
    "system": "FimH (Escherichia coli)",
    "category label": "FALSE"
  }
]

Quick check: does CN1CCN(C(=O)c2cccc(-c3ccc(O[C@H]4O[C@H](CO)[C@@H](O)[C@H](O)[C@@H]4O)cc3)c2)CC1 [Compound 10d] have HAI Titer EC>90 greater than or equal to 3 µM?
TRUE

----------
Target: FimH lectin domain (Escherichia coli, UniProt P08191)
Construct: made by biotinylating FimH lectin domain^25 at a 1:1 molar ratio with NHS-PEO4-Biotin
Sequence (P08191 22-179): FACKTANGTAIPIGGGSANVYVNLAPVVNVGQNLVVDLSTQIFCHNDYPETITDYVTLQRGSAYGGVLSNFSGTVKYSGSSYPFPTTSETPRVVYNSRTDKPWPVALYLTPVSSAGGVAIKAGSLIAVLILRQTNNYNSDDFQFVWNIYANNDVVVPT
Assay: biochemical
Assay type: binding, E. coli
Conditions: Table 20; read-out: Octet Kd
Procedure: Samples or buffer (200 μL per well) were dispensed into 96-well microtiter plates (Greiner Bio-One, Monroe N.C.) and maintained at 30° C. with 1000 RPM shaking. […]
Entries annotated with measured Kd
Expressed in nM, but write only the number.

Some solved entries appear below for comparison.
[
  {
    "chem smiles": "CNS(=O)(=O)c1cccc(-c2ccc(O[C@H]3O[C@H](CO)[C@@H](O)[C@H](O)[C@@H]3O)cc2)c1",
    "test readout": "Kd",
    "u": "nM",
    "observed measurement": 0.49
  },
  {
    "chem smiles": "O=C(O)c1cccc(-c2ccc(O[C@H]3O[C@H](CO)[C@@H](O)[C@H](O)[C@@H]3O)cc2)c1",
    "test readout": "Kd",
    "u": "nM",
    "observed measurement": 2.21
  },
  {
    "chem smiles": "OC[C@H]1O[C@H](Oc2ccc3ccccc3c2)[C@@H](O)[C@@H](O)[C@@H]1O",
    "test readout": "Kd",
    "u": "nM",
    "observed measurement": 2.72
  }
]

Shift focus to the following entry.
For the molecule shown here, COC(=O)c1cccc(O[C@H]2O[C@H](CO)[C@@H](O)[C@H](O)[C@@H]2O)c1 , give the reported Kd.
2.72

----------
target: FimH (Escherichia coli)
Output: class label from HAI Titer EC>90. Mapping: Low (below 1 µM), Medium (1 µM to below 3 µM), High (3 µM or more)

[
  {
    "compound": "O=[N+]([O-])c1cccc(OC2OC(CO)C(O)C(O)C2O)c1 (centres unmarked)",
    "system": "FimH (Escherichia coli)",
    "category label": "High"
  },
  {
    "compound": "OCC1OC(Oc2ccc(-c3ccccc3O)cc2)C(O)C(O)C1O (centres unmarked)",
    "system": "FimH (Escherichia coli)",
    "category label": "High"
  },
  {
    "compound": "COC(=O)c1cccc(OC2OC(CO)C(O)C(O)C2O)c1 (centres unmarked)",
    "system": "FimH (Escherichia coli)",
    "category label": "High"
  }
]

Bin? OCC1OC(Oc2ccc(-c3cccnc3)cc2)C(O)C(O)C1O (centres unmarked)
Medium

Bin? OC[C@@H]1OC(Oc2ccc(-c3ccc4ccncc4c3)cc2)[C@H](O)[C@@H](O)[C@@H]1O (some centres unmarked)
Low

Bin? NCCOCCOCCNC(=O)c1cc(-c2ccc(OC3OC(CO)C(O)C(O)C3O)cc2)cc([N+](=O)[O-])c1 (centres unmarked)
Low

Bin? COC(=O)c1cc(OC2OC(CO)C(O)C(O)C2O)cc(C(=O)OC)c1 (centres unmarked)
Medium

Bin? CNC(=O)c1cccc(-c2ccc(OC3O[C@@H](CO)[C@@H](O)[C@H](O)[C@H]3O)c(C)c2)c1 (some centres unmarked)
Low
